- Target System: CD44v6 on cultured cancer cells (BHT-101, ACT-1, A431) (human) (UniProt P16070)
- Assay Comment: LigandTracer, 125I-IgG4 on BHT-101 cells
Quantity Name: pKd
Note: pKd values are expressed as the negative base-10 logarithm of concentration in M.

I am curious: what pKd value has been reported for AL-MN114-451 hIgG4 (antibody, V domains shown) VH: EVQLLESGGGLVQPGGSLRLSCAASGFTFSSYAMSWVRQAPGKGLEWVSAISAGGYSTYYADSVKGRFTISRDNSKNTLYLQMNSLRAEDTAVYYCARHYYSDSDYRSSAAMDYWGQGTLVTVSS VL: DIQMTQSPSSLSASVGDRVTITCRASQSIGSYLNWYQQKPGKAPKLLIYTASTLQSGVPSRFSGSGSGTDFTLTISSLQPEDFATYYCQQDLYLLTFGQGTKLEIK ?
10.52

Values compiled from patent US20250340662A1.
